# method_description: Biodistribution of [111In]In-radiocomplexes in healthy mice
# Format: in vivo
# applied_conditions: 15 min p.i.
recorded_metric: Biodistribution: Intestine (% I.D./g)

O=C([O-])CN1CCN(CC(=O)[O-])CCN(C(CCC(=O)NCc2ccc(-c3nncnn3)cc2)C(=O)[O-])CCN(CC(=O)[O-])CC1.[111In+3] (stereo not shown) [[111In]In-DOTAGA-Tz] ... 0.4
O=C([O-])CN1CCN(CC(=O)[O-])CCN(CC(=O)NCc2ccc(-c3nncnn3)cc2)CCN(CC(=O)[O-])CC1.[111In+3] [[111In]In-DOTA-Tz] ... 0.3
O=C([O-])CN1CCN(CC(=O)[O-])CCN(C(CCC(=O)NCCOCCOCCOCCOCCOCCOCCOCCOCCOCCOCCOCCNC(=O)CCCC(=O)NCc2ccc(-c3nncnn3)cc2)C(=O)[O-])CCN(CC(=O)[O-])CC1.[111In+3] (stereo not shown) [[111In]In-DOTAGA-PEG-Tz] ... 0.31
O=C([O-])CN1CCN(CC(=O)[O-])CCN(CC(=O)NCCOCCOCCOCCOCCOCCOCCOCCOCCOCCOCCOCCNC(=O)CCCC(=O)NCc2ccc(-c3nncnn3)cc2)CCN(CC(=O)[O-])CC1.[111In+3] [[111In]In-DOTA-PEG-Tz] ... 0.32

# credit: paper PMC8225959
